test system: IL-8-induced neutrophil shape change in human whole blood; assay: Whole blood neutrophil shape change assay (L); type: cell-based; settings: Homo sapiens, Neutrophil, IL-8, human whole blood, read-out: Assay L WBSC IC50
Here the recorded IC50 is given for each entry.
Report the figure in nM without appending any unit label.

### Prompt Tell me the measured IC50 of `CCCn1cc(-c2nc(-c3cc(S(=O)(=O)NCCC(C)(C)O)ccc3C)cnc2N)cn1` , please.
### Response 2090

### Prompt Tell me the measured IC50 of `Cc1ccc(S(=O)(=O)NCC2(CO)COC2)cc1-c1cnc(N)c(-n2cncn2)n1` , please.
### Response 669

* * *

target: PI 3-kinase gamma (Homo sapiens); test: Cellular U937 AKT assay K1 (MSD); assay type: cell-based; settings: U937 cells, K1 format; read-out: Assay K1 PI3Kγ IC50
Structures can show the parent of a compound that is named as a salt.
Here the recorded IC50 is given for each entry.
Report the figure in nM without appending any unit label.

Below, each entry is followed by its recorded IC50 result.
### Prompt Tell me the measured IC50 of Cc1ccc(S(=O)(=O)NC[C@H]2CCCN2)cc1-c1cnc(N)c(-c2cn(C)nc2C)n1 [Example 106, hydrochloride] , please.
### Response 2280

### Prompt Tell me the measured IC50 of `Cc1ccc(S(=O)(=O)NCC(C)(C)CO)cc1-c1cnc(N)c(-c2cc(C3CC3)no2)n1` , please.
### Response 59

### Prompt Tell me the measured IC50 of `Cc1ccc(S(=O)(=O)NC[C@H]2COCCN2)cc1-c1cnc(N)c(-c2cn(C)nc2C)n1` , please.
### Response 249

Alright, here's another compound for you.
### Prompt Tell me the measured IC50 of Cc1ccc(S(=O)(=O)NCCC(C)(O)C(F)(F)F)cc1-c1cnc(N)c(-n2cncn2)n1 (stereo not shown) , please.
### Response 168

* * *

target: PI 3-kinase delta (Homo sapiens, UniProt O00329); experiment: TR-FRET Adapta assay, assay F; conditions: read-out: Assay F PI3Kδ IC50
Sequence (O00329 whole entry): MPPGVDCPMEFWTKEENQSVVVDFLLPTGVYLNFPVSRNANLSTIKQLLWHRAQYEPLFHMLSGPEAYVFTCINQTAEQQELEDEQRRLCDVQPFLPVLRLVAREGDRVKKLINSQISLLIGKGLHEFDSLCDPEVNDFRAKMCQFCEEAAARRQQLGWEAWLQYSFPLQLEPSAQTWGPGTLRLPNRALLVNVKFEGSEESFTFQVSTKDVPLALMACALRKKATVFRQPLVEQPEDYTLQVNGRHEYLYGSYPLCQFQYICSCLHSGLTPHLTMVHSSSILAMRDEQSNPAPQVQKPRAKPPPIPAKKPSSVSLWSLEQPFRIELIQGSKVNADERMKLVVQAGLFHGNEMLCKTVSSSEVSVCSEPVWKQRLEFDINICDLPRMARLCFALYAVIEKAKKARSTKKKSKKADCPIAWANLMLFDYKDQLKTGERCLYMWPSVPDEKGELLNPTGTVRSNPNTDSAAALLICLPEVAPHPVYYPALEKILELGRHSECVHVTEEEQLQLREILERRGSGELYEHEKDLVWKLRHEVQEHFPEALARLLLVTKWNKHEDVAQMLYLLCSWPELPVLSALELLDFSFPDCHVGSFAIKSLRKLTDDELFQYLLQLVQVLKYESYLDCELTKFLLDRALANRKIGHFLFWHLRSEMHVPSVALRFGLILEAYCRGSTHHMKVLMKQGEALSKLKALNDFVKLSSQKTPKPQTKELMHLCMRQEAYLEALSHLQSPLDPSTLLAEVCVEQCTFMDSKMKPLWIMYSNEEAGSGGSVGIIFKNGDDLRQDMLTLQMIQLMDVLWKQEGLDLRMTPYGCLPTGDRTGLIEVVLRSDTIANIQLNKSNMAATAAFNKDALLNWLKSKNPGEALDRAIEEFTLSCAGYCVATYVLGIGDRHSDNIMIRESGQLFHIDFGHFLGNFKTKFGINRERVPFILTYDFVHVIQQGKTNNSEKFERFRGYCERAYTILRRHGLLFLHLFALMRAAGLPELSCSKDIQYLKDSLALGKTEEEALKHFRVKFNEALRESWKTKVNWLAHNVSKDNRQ
Sequence (P27986 461-568 partner): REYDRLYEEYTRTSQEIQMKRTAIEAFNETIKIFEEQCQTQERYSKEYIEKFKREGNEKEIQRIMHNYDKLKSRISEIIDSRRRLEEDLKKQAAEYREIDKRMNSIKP
assayMetric: IC50 (nM)
Report the figure in nM without appending any unit label.

Below, each entry is followed by its recorded IC50 result.
### Prompt Tell me the measured IC50 of Cc1cc(-c2nc(-c3cc(S(=O)(=O)NCC4(O)CCCCC4)ccc3C)cnc2N)ccn1 [Example 129.4] , please.
### Response 430

### Prompt Tell me the measured IC50 of Cc1ccc(S(=O)(=O)NCC2(CO)COC2)cc1-c1cnc(N)c(-n2cncn2)n1 [Example 35] , please.
### Response 990

### Prompt Tell me the measured IC50 of Cc1ccc(S(=O)(=O)NOC(C)(C)C)cc1-c1cnc(N)c(-n2cncn2)n1 [Example 112.1] , please.
### Response 210

Alright, here's another compound for you.
### Prompt Tell me the measured IC50 of COc1nc(-c2nc(-c3cc(S(=O)(=O)NCCC(C)(C)O)ccc3C)cnc2N)cs1 [Example 110] , please.
### Response 320

* * *

molecular target: PI 3-kinase gamma (Homo sapiens, UniProt P48736); assay: TR-FRET Adapta assay, assay E; format: biochemical; conditions: read-out: Assay E PI3Kγ IC50
Sequence (P48736 whole entry): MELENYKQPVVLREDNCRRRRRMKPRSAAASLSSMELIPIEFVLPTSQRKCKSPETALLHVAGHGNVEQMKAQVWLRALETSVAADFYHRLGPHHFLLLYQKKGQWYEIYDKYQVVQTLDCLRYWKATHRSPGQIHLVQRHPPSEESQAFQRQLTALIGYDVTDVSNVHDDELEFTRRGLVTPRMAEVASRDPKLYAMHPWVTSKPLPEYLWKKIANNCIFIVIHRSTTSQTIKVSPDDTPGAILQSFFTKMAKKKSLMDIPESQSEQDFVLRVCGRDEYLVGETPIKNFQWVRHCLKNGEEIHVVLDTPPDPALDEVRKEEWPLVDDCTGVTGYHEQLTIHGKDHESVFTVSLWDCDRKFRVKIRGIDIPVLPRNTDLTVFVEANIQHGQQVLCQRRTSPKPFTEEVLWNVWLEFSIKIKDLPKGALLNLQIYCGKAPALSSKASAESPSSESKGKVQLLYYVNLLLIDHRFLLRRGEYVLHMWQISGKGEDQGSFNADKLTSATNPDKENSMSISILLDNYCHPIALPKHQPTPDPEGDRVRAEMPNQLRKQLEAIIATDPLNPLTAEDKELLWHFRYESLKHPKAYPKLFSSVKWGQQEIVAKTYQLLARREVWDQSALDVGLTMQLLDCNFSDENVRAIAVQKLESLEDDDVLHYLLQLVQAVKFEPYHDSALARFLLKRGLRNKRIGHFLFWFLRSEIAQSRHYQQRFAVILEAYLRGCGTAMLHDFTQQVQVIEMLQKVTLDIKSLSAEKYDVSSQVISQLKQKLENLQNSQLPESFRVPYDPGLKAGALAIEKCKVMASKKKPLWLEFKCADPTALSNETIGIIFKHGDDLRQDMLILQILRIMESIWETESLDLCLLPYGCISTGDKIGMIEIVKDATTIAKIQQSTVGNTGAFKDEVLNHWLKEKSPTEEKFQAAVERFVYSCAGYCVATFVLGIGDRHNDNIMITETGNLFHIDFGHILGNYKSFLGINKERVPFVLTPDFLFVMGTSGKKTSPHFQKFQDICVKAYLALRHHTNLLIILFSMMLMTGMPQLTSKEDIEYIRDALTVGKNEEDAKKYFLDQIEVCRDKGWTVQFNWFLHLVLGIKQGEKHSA
assayMetric: IC50 (µM)
Report the figure in µM without appending any unit label.

Below, each entry is followed by its recorded IC50 result.
### Prompt Tell me the measured IC50 of `Cc1cc(-c2nc(-c3cc(S(=O)(=O)NCC4(O)CCC4)ccc3C)cnc2N)ccn1` , please.
### Response 0.038

### Prompt Tell me the measured IC50 of `Cc1cc(-c2nc(-c3cc(S(=O)(=O)NCCC(C)(C)O)ccc3C)cnc2N)n(C)n1` , please.
### Response 0.034

### Prompt Tell me the measured IC50 of Cc1ccc(S(=O)(=O)NCC2CCN(C)C2)cc1-c1cnc(N)c(-n2cncn2)n1 (centres unmarked) , please.
### Response 1.3

### Prompt Tell me the measured IC50 of Cc1ncc(-c2nc(-c3cc(S(=O)(=O)NC[C@H]4C[C@H](O)C4)ccc3C)cnc2N)s1 [Example 20b] , please.
### Response 0.011

### Prompt Tell me the measured IC50 of `Cc1ccc(S(=O)(=O)N[C@H]2CC[C@@H](O)CC2)cc1-c1cnc(N)c(-c2cnn(C)c2)n1` , please.
### Response 0.056

Others:
### Prompt Tell me the measured IC50 of `Cc1ccc(S(=O)(=O)NCCC2(O)CCCC2)cc1-c1cnc(N)c(-n2cncn2)n1` , please.
### Response 0.024

### Prompt Tell me the measured IC50 of `Cc1ccc(S(=O)(=O)NCC2(O)CC2)cc1-c1cnc(N)c(-n2cncn2)n1` , please.
### Response 0.026

### Prompt Tell me the measured IC50 of `Cc1cc(-c2nc(-c3cc(S(=O)(=O)NCCN(C)C)ccc3C)cnc2N)ccn1` , please.
### Response 0.59

* * *

molecular target: PI 4-kinase beta (Homo sapiens, UniProt Q9UBF8); assay: Kinase Glo Luminescent Kinase Assay (Kglo), assay D; assay type: biochemical; details: read-out: Assay D PI4Kβ IC50
Sequence (Q9UBF8 whole entry): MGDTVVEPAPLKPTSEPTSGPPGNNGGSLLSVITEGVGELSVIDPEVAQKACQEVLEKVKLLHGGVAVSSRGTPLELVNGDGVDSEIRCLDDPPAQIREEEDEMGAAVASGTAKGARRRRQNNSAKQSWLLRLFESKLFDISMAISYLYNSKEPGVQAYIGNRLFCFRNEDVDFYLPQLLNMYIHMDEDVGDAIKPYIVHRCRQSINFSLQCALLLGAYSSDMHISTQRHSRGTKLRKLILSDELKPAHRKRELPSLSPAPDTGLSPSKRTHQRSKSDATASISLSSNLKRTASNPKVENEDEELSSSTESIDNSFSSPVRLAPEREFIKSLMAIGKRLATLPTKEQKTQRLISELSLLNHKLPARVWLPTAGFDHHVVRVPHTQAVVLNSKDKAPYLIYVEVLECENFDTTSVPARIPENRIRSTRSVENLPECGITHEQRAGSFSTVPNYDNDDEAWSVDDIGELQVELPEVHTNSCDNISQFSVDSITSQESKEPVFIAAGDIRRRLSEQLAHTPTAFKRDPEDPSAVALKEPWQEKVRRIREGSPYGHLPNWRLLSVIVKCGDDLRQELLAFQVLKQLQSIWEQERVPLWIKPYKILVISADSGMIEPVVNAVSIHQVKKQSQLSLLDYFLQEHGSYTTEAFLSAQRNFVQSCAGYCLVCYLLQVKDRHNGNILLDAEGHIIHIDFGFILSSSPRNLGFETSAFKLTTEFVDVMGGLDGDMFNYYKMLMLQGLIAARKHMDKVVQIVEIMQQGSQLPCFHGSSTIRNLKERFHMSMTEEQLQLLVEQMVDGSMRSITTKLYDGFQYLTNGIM
Where a name gives a salt, the structure may show the parent alone.
assayMetric: pIC50
Formally, pIC50 is defined as -log10 of the concentration c, with c in mol/L.

### Prompt Provide the documented pIC50 with PI 4-kinase beta (Homo sapiens, UniProt Q9UBF8) as the system for `Cc1ccc(-c2nc(-c3cc(S(=O)(=O)NCCC(C)(C)O)ccc3C)cnc2N)s1`
### Response 6.12

Others:
### Prompt Provide the documented pIC50 with PI 4-kinase beta (Homo sapiens, UniProt Q9UBF8) as the system for Cc1ccc(S(=O)(=O)NC(C)CO)cc1-c1cnc(N)c(-n2cncn2)n1 (stereo not shown)
### Response 5.15

### Prompt Provide the documented pIC50 with PI 4-kinase beta (Homo sapiens, UniProt Q9UBF8) as the system for Cc1ccc(S(=O)(=O)NCC2CCCCO2)cc1-c1cnc(N)c(-n2cncn2)n1 (stereo not shown)
### Response 5.13

### Prompt Provide the documented pIC50 with PI 4-kinase beta (Homo sapiens, UniProt Q9UBF8) as the system for `CC(C)(O)CCNS(=O)(=O)c1ccc(Cl)c(-c2cnc(N)c(-n3cncn3)n2)c1`
### Response 5.38

### Prompt Provide the documented pIC50 with PI 4-kinase beta (Homo sapiens, UniProt Q9UBF8) as the system for `Cc1cc(-c2nc(-c3cc(S(=O)(=O)N[C@H]4CC[C@H](O)CC4)ccc3C)cnc2N)on1`
### Response 5.43

### Prompt Provide the documented pIC50 with PI 4-kinase beta (Homo sapiens, UniProt Q9UBF8) as the system for `Cc1ccc(S(=O)(=O)NCCC(C)(C)O)cc1-c1cnc(N)c(-n2cccn2)n1`
### Response 5.43

### Prompt Provide the documented pIC50 with PI 4-kinase beta (Homo sapiens, UniProt Q9UBF8) as the system for `Cc1cc(F)c(S(=O)(=O)NCCCO)cc1-c1cnc(N)c(-c2cnn(C)c2)n1`
### Response 5.23

### Prompt Provide the documented pIC50 with PI 4-kinase beta (Homo sapiens, UniProt Q9UBF8) as the system for `Cc1ccc(S(=O)(=O)NCCC(C)(C)O)cc1-c1cnc(N)c(-c2cnc(C3CC3)s2)n1`
### Response 6.03

### Prompt Provide the documented pIC50 with PI 4-kinase beta (Homo sapiens, UniProt Q9UBF8) as the system for Cc1ccc(S(=O)(=O)NCC[C@@H](O)C(F)(F)F)cc1-c1cnc(N)c(-c2cn(C)nc2C)n1 (single isomer, unassigned) [Example 52b]
### Response 5.38

### Prompt Provide the documented pIC50 with PI 4-kinase beta (Homo sapiens, UniProt Q9UBF8) as the system for `Cc1ncc(-c2nc(-c3cc(S(=O)(=O)NCC4(CO)COC4)ccc3C)cnc2N)s1`
### Response 5.80

### Prompt Provide the documented pIC50 with PI 4-kinase beta (Homo sapiens, UniProt Q9UBF8) as the system for `Cc1ccc(S(=O)(=O)NCCC(C)(C)O)cc1-c1cnc(N)c(-c2ccc(C3CC3)s2)n1`
### Response 6.21

### Prompt Provide the documented pIC50 with PI 4-kinase beta (Homo sapiens, UniProt Q9UBF8) as the system for `Cc1ccc(S(=O)(=O)NCCC(C)(C)O)cc1-c1cnc(N)c(-c2cc(C3CC3)no2)n1`
### Response 5.81

### Prompt Provide the documented pIC50 with PI 4-kinase beta (Homo sapiens, UniProt Q9UBF8) as the system for `CC(C)(O)CNS(=O)(=O)c1ccc(Cl)c(-c2cnc(N)c(-n3cncn3)n2)c1`
### Response 5.46

### Prompt Provide the documented pIC50 with PI 4-kinase beta (Homo sapiens, UniProt Q9UBF8) as the system for `Cc1cnn(-c2nc(-c3cc(S(=O)(=O)N[C@H]4CC[C@H](O)CC4)ccc3C)cnc2N)c1`
### Response 5.71

### Prompt Provide the documented pIC50 with PI 4-kinase beta (Homo sapiens, UniProt Q9UBF8) as the system for `Cc1ccc(S(=O)(=O)NCC(C)(C)O)cc1-c1cnc(N)c(-c2cnn(C)c2)n1`
### Response 5.21

### Prompt Provide the documented pIC50 with PI 4-kinase beta (Homo sapiens, UniProt Q9UBF8) as the system for `Cc1ccc(S(=O)(=O)NC[C@H]2CCOC2)cc1-c1cnc(N)c(-c2cn(C)nc2C)n1`
### Response 5.19

### Prompt Provide the documented pIC50 with PI 4-kinase beta (Homo sapiens, UniProt Q9UBF8) as the system for `Cc1ccc(S(=O)(=O)N[C@@H](C)CO)cc1-c1cnc(N)c(-n2cncn2)n1`
### Response 5.38

### Prompt Provide the documented pIC50 with PI 4-kinase beta (Homo sapiens, UniProt Q9UBF8) as the system for `Cc1ccc(S(=O)(=O)NCCC(C)(C)O)cc1-c1cnc(N)c(-c2ccc(F)nc2)n1`
### Response 5.09

### Prompt Provide the documented pIC50 with PI 4-kinase beta (Homo sapiens, UniProt Q9UBF8) as the system for `Cc1ncc(-c2nc(-c3cc(S(=O)(=O)NCCC(C)(C)O)ccc3C)cnc2N)o1`
### Response 5.21

### Prompt Provide the documented pIC50 with PI 4-kinase beta (Homo sapiens, UniProt Q9UBF8) as the system for Cc1ccc(S(=O)(=O)NCCC(C)(C)O)cc1-c1cnc(N)c(-c2cnn(Cc3ccccc3)c2)n1 [Example 132, hydrochloride]
### Response 5.65
